# Test system: RPE-choroid sclera explants
# Conditions: read-out: IC50 vessel outgrowth; murine choroid explants in fibrin gel, 3 to 4 days
Reported endpoint: IC50

// returns reported IC50 for input CC(C)[C@H]1C(=O)N[C@@H](CCCN=C(N)N)C(=O)NCC(=O)N[C@@H](CC(=O)O)C(=O)N[C@H](Cc2ccccc2)C(=O)N1C [Cilengitide] ~300 µM

---

# Tested on: human umbilical vein endothelial cells (HUVECs)
# Assay name: ORIS Cell Migration Assay
# Type: cell-based
# Conditions: HUVEC, fibronectin-coated plates, 24 h migration
Reported endpoint: IC50 (µM)
Answers are plain numbers, in µM.

Please report the recorded IC50 for CC(C)[C@H]1C(=O)N[C@@H](CCCN=C(N)N)C(=O)NCC(=O)N[C@@H](CC(=O)O)C(=O)N[C@H](Cc2ccccc2)C(=O)N1C [Cilengitide] . 100
